Data origin: PubChem BioAssay

molecular target: Voltage-gated potassium channel subunit beta-2 (Rattus norvegicus) (UniProt P62483); experiment: enhancers of rat Kvbeta2 NADPH turnover – biochemical, NADPH fluorescence, primary screen (AID 623); conditions: Recombinant KvBeta, NADPH fluorescence decrease slope, 10 min; at 10 µM; stronger effect = lower value;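 also: fluorescence intensity change per second fitted from 20 to 320 s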
Sequence (P62483 whole entry, looked up): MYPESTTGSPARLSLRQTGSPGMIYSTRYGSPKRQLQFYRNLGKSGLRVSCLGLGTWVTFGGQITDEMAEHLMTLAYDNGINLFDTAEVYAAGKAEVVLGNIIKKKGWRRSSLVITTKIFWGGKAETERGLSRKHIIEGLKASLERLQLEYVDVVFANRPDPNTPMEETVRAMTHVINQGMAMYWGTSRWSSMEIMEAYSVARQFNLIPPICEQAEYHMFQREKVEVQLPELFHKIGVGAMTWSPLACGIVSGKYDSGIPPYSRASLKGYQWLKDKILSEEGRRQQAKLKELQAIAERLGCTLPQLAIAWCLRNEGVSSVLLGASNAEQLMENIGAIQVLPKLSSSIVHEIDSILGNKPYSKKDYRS
Exercise: state measured NADPH fluorescence slope for each of the compounds provided.
The reply should be a number, written without any unit.

[in] Fill in reported NADPH fluorescence slope for this entry: CCOC(=O)c1[nH]c(C)c(C(=O)Nc2ccc(C)c(Cl)c2)c1C
[out] 1.5e-05

[in] Provide one value: measured NADPH fluorescence slope of COc1ccc(-n2c(COc3ccccc3)nnc2SCc2ccc(C#N)cc2)cc1
[out] -5.8e-05

[in] For the compound COc1ccc(Br)cc1C(=O)Nc1nnn(C)n1 , report NADPH fluorescence slope.
[out] 4.6e-05

[in] Quickly give me recorded NADPH fluorescence slope for O=C(CSc1nc2cc(Cl)ccc2s1)N1CCN(C(=O)c2ccco2)CC1
[out] -5.8e-05

[in] Indicate the recorded NADPH fluorescence slope value for this compound: COCCNC(=O)CSc1nc(-c2ccc(OC)c(OC)c2)cc(C(F)(F)F)n1
[out] -0.000127

[in] Supply NADPH fluorescence slope value. Item: COCCN(CCOC)C(=O)CCn1c(=O)oc2ccccc21
[out] -5.7e-05

---

assay: reduction of polyQ htt aggregates in cells – imaging, exon1htt(103Q)mCFP cells, high-content imaging, primary screen (AID 483); conditions: exon1htt(103Q)mCFP cell line, aggregate imaging, at 2 µM; stronger effect = higher value;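 also: compound exposure lasted 3 days before fixation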
test readout: inhibition of aggregation (%)
# number only, unit % dropped from output

[in] Identify the reported inhibition of aggregation for the following entry. Clc1ccc(OCCCn2cncn2)cc1Cl
[out] 21.2

[in] Name the recorded inhibition of aggregation of the item O=C(N1CCN(c2ccccc2F)CC1)C12CC3CC(CC(C3)C1)C2 in your answer.
[out] -2.5

[in] Tell me its inhibition of aggregation given CCn1nnnc1SCC(=O)N1c2ccccc2CCc2ccccc21 as the entry.
[out] 2

[in] Please report the measured inhibition of aggregation for CN(C)c1ccc(C2C3=C(CCCC3=O)OC3=C2C(=O)CCC3)cc1
[out] 8.9

[in] Specify reported inhibition of aggregation for the molecule shown: COc1ccc(CCn2c(-c3ccco3)nc3ccccc3c2=O)cc1OC
[out] 2.8

[in] Note inhibition of aggregation for the molecule shown: COC(=O)Nc1ccc(S(=O)(=O)N2CCCCCC2)cc1
[out] 1.8

---

molecular target: Alpha-2C adrenergic receptor (Homo sapiens) (UniProt P18825); experiment: compounds altering alpha2C-coupled GIRK flux – cell-based, HEK293 alpha2C/GIRK1/2, thallium flux, primary screen (AID 624); conditions: thallium flux BTC fluorescence, at 10 µM, actives lie on both sides;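 also: slope of fluorescence ratio to pre-addition baseline per second over 15 to 24 s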
Sequence (P18825 whole entry, looked up): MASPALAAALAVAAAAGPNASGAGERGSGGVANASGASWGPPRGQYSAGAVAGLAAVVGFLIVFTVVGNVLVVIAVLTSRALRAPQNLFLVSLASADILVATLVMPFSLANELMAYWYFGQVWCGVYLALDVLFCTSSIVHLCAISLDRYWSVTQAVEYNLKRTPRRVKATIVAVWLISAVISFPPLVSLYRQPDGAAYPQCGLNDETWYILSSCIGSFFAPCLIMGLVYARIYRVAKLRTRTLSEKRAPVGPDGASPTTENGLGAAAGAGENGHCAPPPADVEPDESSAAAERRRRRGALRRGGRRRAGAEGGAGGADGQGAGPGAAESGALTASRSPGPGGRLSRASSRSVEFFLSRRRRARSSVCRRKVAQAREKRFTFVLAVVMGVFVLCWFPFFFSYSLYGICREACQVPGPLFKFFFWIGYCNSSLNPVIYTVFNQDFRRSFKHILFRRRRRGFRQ
Could you mark each record Yes if its slope falls strictly under 0.006, and No if it equals or exceeds it?

[in] Could you please tell me whether slope recorded for COCCNC(=O)c1ccc(CS(=O)(=O)c2ccc(OC)cc2)o1 is less than 0.006?
[out] No

[in] Does the reported slope of the following molecule sit strictly below 0.006? CC(=O)n1nc(-c2ccco2)nc1SCc1ccccc1
[out] No

[in] Identify whether the molecule Cc1cc(C(=O)COC(=O)c2n[nH]c3ccccc23)c(C)n1C records slope below 0.006.
[out] Yes

[in] Is slope of CCCn1c(SCC(=O)NC(=O)NCc2ccco2)n[nH]c1=O strictly below 0.006?
[out] Yes

[in] Say whether its slope is strictly beneath 0.006. Entry: CSc1ccccc1NC(=O)C1CCCO1 (stereo not drawn)
[out] No

[in] Report whether reported slope is lower than 0.006 (strictly) for COc1ccc(CCNc2oc(-c3ccco3)nc2C#N)cc1
[out] Yes

[in] Take the molecule CCOC(=O)c1c(C)oc2ccc(NS(=O)(=O)c3ccc4c5c(cccc35)C(=O)N4)cc12 and say whether its slope is less than 0.006.
[out] Yes

[in] Report whether reported slope is lower than 0.006 (strictly) for CC1CCN(S(=O)(=O)c2ccc3[nH]c(=O)cc(C(=O)O)c3c2)CC1
[out] No

[in] is_below(slope, 0.006) for CCOC(=O)C1CCN(C(=O)Nc2ccc3nc(C)c(C)nc3c2)CC1 ?
[out] Yes

[in] Quick check: slope of C=CCN(CC=C)C(=O)Nc1cc(Cl)ccc1OC under 0.006?
[out] Yes

[in] is_below(slope, 0.006) for COc1ccccc1C(=O)Nc1ccc(N2CCN(Cc3ccccc3)CC2)cc1 ?
[out] Yes

[in] Strictly below 0.006 in slope? COc1ccc(C(c2sc3nc(C)nn3c2O)N2CCCCC2)cc1 (stereo not drawn)
[out] No

[in] Dear reviewer, please state whether CCOc1ccc(Cn2nnc(C(=O)Nc3ccc(OC)cc3OC)c2N)cc1 has slope strictly beneath 0.006.
[out] Yes

[in] Hello, I'm reviewing records and need to know if slope of Cc1nn(Cc2ccccc2)c2c1C(c1ccncc1)C(C#N)=C(N)O2 (stereo not drawn) is below 0.006. Could you check?
[out] Yes

[in] hey, is slope for COC(=O)c1ccc(COC(=O)c2c(C)nn(Cc3ccccc3Cl)c2Cl)o1 lower than 0.006 or not?
[out] No

[in] Regarding COC(=O)c1cc2ccsc2n1CC(=O)Nc1cc(C)cc(C)c1 , kindly confirm whether its slope is beneath 0.006.
[out] No

[in] Consider the molecule CCn1c(SCc2nc(-c3cccs3)no2)nnc1-c1c[nH]c2ccccc12 . Is its slope strictly less than 0.006?
[out] Yes

[in] I'd appreciate it if you could check whether Clc1ccc(OCc2nnc(SCCN3CCCCC3)n2Cc2ccco2)cc1 has slope smaller than 0.006.
[out] Yes

[in] Does O=C(NCCCN1CCOCC1)c1cc(-c2ccc(Cl)cc2)on1 have slope strictly under 0.006?
[out] Yes

[in] Hi there! Is slope for COC(=O)CCC(NC(=O)c1cc(-c2ccc3c(c2)OCCO3)oc1C)C(=O)OC (stereo not drawn) below 0.006, do you know?
[out] Yes

[in] Dear reviewer, please state whether CCn1c(-c2cc(Br)ccc2O)n[nH]c1=S has slope strictly beneath 0.006.
[out] No

---

test: reduction of polyQ htt aggregates in cells – imaging, exon1htt(103Q)mCFP cells, high-content imaging, primary screen (AID 483); details: exon1htt(103Q)mCFP cell line, aggregate imaging, at 2 µM; measured here: cell count, toxicity;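 also: compound exposure lasted 3 days before fixation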;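 as to nuclei count: percent of the per-plate median nuclei count of sample wells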
test readout: nuclei count (%)
Number in %, nothing else.

[in] Please indicate nuclei count recorded for COC(=O)Cn1c(=NC(=O)CSCC(=O)Nc2cc(C)on2)sc2ccccc21
[out] 112

[in] # return recorded nuclei count for entry CCOC(=O)c1c(-c2ccc(C)o2)csc1NC(=O)CN1CCN(CC)CC1
[out] 95.5

[in] Annotate the compound c1ccc(-c2nnc(SCc3nc4ccccc4[nH]3)o2)cc1 with its measured nuclei count.
[out] 94.1

[in] Output measured nuclei count for this item: CCn1c(-c2cc(Br)ccc2O)n[nH]c1=S
[out] 112

[in] Query nuclei count for Cc1c(NC(=O)C(C)OC(=O)C(NC(=O)c2ccco2)C(C)C)c(=O)n(-c2ccccc2)n1C (stereo not given)
[out] 105

---

Would you kindly list nuclei count for each of these compounds?
experiment: endothelial E-selectin expression blockers – imaging, HUVEC, immunofluorescence, MLSMR starter and 10KST1 sets, primary screen (AID 487); conditions: HUVEC TNFalpha-induced E-selectin immunofluorescence imaging, at 2 µM; measured here: cell number, toxicity;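 also: 100% = median nuclei count of all wells on the same plate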
Provide the reading as a plain figure in %.

[in] Return value of nuclei count for input O=C(CSCc1n[nH]c(=O)[nH]1)NCCOc1cccc(Oc2ccccc2)c1 , no commentary.
[out] 105

[in] Provide nuclei count value for the following compound: Cc1ccc(/C(O)=C2\C(=O)C(=O)N(CCCN(C)C)C2c2ccccn2)cc1 (stereo unspecified)
[out] 132

[in] Give reported nuclei count value for COc1ccc(OC)c(N(CC(=O)Nc2cccnc2)S(=O)(=O)c2ccc(OC)c(OC)c2)c1
[out] 94.1

[in] # return recorded nuclei count for entry NC(=O)c1sc2nc(N3CCCCC3)c3c(c2c1N)CCCC3
[out] 111

[in] // Input: CC1CCN(CC(O)COC2CCC(C(C)(C)C)CC2)CC1 (stereo unspecified) . Output its nuclei count only.
[out] 111

[in] Tell me measured nuclei count for CC1(C)CC(=O)c2c(O)cc(O)cc2O1 please.
[out] 99.8

---

biological target: Alpha-2C adrenergic receptor (Homo sapiens) (UniProt P18825); experiment: compounds altering alpha2C-coupled GIRK flux – cell-based, HEK293 alpha2C/GIRK1/2, thallium flux, primary screen (AID 624); conditions: thallium flux BTC fluorescence, at 10 µM, actives lie on both sides;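 also: slope of fluorescence ratio to pre-addition baseline per second over 15 to 24 s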
test readout: slope
Lab note: jot the number down without any unit.

[in] Write down slope measured for item COc1ccc(C(C)NC(=O)c2ccoc2C)cc1OC (stereo unspecified)
[out] 0.00668

[in] State its slope for this molecule: Cc1ccc(F)cc1NC(=O)C1CCCN(c2ncccn2)C1 (stereo unspecified)
[out] 0.00523

[in] Consider the molecule O=S1(=O)CCC(N=Cc2cc(Br)ccc2O)C1 (stereo unspecified) . State its measured slope.
[out] 0.0045

[in] Give a short answer stating reported slope for CCOC(=O)c1ccc(-n2c(C)nc3c(cnn3-c3ccccc3C)c2=O)cc1 .
[out] 0.00553

[in] Output slope of CCOC(=O)N1CCC(N2C(=O)c3ccccc3C2Nc2cccnc2)CC1 (stereo unspecified)
[out] 0.00694

[in] Give slope for the following molecule: CCc1cc2c(=O)c(-c3nc4ccccc4[nH]3)coc2c(CN2CCC(C)CC2)c1O
[out] 0.00554

[in] Supply recorded slope for O=C(CSCc1n[nH]c(=O)[nH]1)NCCOc1cccc(Oc2ccccc2)c1 here.
[out] 0.00545

[in] Specify slope for O=C(Cc1cccs1)N(c1ccccc1)C1C=CS(=O)(=O)C1 (stereo unspecified) and stop.
[out] 0.0046

[in] Using the record for O=C(c1ccco1)c1nnn(Cc2ccccc2)c1-c1ccccc1 , state its measured slope.
[out] 0.00349

[in] Specify measured slope for COc1ccc(N2CCN(CCNS(=O)(=O)c3cccc4nsnc34)CC2)cc1 .
[out] 0.00512

[in] Tell me its slope given COc1ccc(C2C(C(C)=O)=C(O)C(=O)N2C)c(OC)c1 (stereo unspecified) as the entry.
[out] 0.00277
